Cited source for all entries: patent US6906078B2

test system: gastric acid secretion; assay: Inhibition of gastric acid secretion in gastric fistula beagle dogs (histamine-stimulated); assay type: in vivo; conditions: Canis lupus familiaris, intraduodenal, 4 h; 3 mg/kg i.d.; histamine-stimulated, four-hour period; read-out: Gastric-Fistula Beagle % Inhibition (3 mg/kg dose)
Would you kindly list inhibition in vivo at 3 mg/kg for each of these molecules?
Kindly provide the numeric value in % only, without the unit symbol.

So what's the measured inhibition in vivo at 3 mg/kg for this one? COc1ccc2[nH]c([S+]([O-])Cc3cc(C)ccc3N)nc2c1 (centres unmarked)
66

So what's the measured inhibition in vivo at 3 mg/kg for this one? CCCCc1ccc(N)c(C[S+]([O-])c2nc3ccccc3[nH]2)c1 (centres unmarked)
19

So what's the measured inhibition in vivo at 3 mg/kg for this one? CCc1cccc(C[S+]([O-])c2nc3ccccc3[nH]2)c1N (centres unmarked)
21

So what's the measured inhibition in vivo at 3 mg/kg for this one? COc1ccc2[nH]c([S+]([O-])Cc3cccc(C)c3N)nc2c1 (centres unmarked)
72

So what's the measured inhibition in vivo at 3 mg/kg for this one? Cc1cccc(C[S+]([O-])c2nc3ccccc3[nH]2)c1N (centres unmarked)
44

* * *

biological target: HCMV protease (assemblin) (Human cytomegalovirus, UniProt P16753); assay: Enzymatic assay for HCMV protease (assemblin) inhibitors, fluorogenic substrate DE2; assay type: biochemical; conditions: at 100 μm; 30 min preincubation at 22° C.; read-out: Assemblin Inhibition % Inhibition at 100 μm
Sequence (P16753 1-256): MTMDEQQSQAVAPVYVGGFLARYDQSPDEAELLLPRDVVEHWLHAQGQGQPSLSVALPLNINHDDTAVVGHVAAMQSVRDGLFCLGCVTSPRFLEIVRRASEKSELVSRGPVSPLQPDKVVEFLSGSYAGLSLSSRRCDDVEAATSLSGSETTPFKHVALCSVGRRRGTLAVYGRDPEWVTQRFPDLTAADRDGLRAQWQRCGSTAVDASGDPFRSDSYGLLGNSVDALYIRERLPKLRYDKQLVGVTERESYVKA
measureName: inhibition at 100 µM (%)
Kindly provide the numeric value in % only, without the unit symbol.

So what's the measured inhibition at 100 µM for this one? CCOC(=O)c1ccc(N)c(C[S+]([O-])c2nc3ccc(OC)cc3[nH]2)c1 (centres unmarked) [Example 73]
50

So what's the measured inhibition at 100 µM for this one? Cc1ccc2[nH]c([S+]([O-])Cc3ccccc3N)nc2c1 (centres unmarked) [Example 41]
67

So what's the measured inhibition at 100 µM for this one? CN(C)c1ncccc1C[S+]([O-])c1nc2ccccc2[nH]1 (centres unmarked) [Example 83, hydrate]
83

So what's the measured inhibition at 100 µM for this one? COc1ccc2[nH]c([S+]([O-])Cc3c(N)cc(C)c(OC)c3C)nc2c1 (centres unmarked) [Example 78]
82

So what's the measured inhibition at 100 µM for this one? Nc1ccccc1C[S+]([O-])c1nc2cc(C(F)(F)F)ccc2[nH]1 (centres unmarked) [Example 47]
40

* * *

Would you kindly list IC50 for each of these compounds?
molecular target: (H+/K+)-ATPase (Canis lupus familiaris); construct: The microsomes retained at the 15%-30% sucrose interface, after centrifugation at 250,000×g for sixty minutes, were used as the source of (H^+/K^+)-ATPase; from tissue; host or cells: gastric glandular mucosa of mongrel dogs (microsomal fraction, lyophilized); experiment: Inhibition of (H+/K+)-ATPase from canine gastric mucosa (inorganic phosphate release); type: biochemical; conditions: canine gastric mucosa microsomes, pH 6.0, 30 min preincubation at 37° C.; read-out: (H+/K+)-ATPase IC50
Sequence (P50996 whole entry): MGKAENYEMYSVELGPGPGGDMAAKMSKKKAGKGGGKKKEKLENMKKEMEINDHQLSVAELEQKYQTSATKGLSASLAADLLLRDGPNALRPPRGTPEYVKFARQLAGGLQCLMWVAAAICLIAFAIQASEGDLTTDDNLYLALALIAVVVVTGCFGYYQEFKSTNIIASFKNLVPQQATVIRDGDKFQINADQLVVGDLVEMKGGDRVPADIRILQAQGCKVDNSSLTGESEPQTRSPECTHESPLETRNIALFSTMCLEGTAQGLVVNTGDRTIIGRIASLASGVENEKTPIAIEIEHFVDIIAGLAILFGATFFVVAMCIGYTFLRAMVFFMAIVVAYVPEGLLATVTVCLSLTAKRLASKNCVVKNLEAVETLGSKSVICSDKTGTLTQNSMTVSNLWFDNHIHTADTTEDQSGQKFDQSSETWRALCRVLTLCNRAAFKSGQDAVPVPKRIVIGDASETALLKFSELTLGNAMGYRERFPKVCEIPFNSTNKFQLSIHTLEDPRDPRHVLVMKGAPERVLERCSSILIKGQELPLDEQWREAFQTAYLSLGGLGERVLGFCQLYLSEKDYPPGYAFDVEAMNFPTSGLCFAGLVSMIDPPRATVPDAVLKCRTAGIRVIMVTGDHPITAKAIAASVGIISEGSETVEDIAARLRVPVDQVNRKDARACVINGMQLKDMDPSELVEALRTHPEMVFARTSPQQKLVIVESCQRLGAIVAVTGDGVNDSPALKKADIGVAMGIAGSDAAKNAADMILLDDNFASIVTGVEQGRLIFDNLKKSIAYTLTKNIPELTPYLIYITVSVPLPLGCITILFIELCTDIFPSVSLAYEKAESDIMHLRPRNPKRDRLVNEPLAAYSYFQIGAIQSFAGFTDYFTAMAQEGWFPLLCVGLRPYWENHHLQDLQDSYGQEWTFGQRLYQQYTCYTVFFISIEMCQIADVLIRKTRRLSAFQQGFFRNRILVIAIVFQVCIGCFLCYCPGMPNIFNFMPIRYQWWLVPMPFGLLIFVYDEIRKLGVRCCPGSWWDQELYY
Sequence (P33704 whole entry partner): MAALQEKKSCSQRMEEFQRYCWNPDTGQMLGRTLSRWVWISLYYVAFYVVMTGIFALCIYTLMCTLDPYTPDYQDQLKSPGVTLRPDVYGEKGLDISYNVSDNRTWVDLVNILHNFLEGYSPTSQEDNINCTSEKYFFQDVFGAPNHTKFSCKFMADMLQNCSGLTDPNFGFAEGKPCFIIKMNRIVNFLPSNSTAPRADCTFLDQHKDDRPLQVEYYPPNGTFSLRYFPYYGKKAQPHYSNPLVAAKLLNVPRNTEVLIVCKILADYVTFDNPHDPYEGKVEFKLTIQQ
Kindly provide the numeric value in µM only, without the unit symbol.

What IC50 appears in the records for this compound with (H+/K+)-ATPase (Canis lupus familiaris)? COc1ccc2[nH]c([S+]([O-])Cc3cc(C)ccc3N)nc2c1 (stereo not shown)
4.2

What IC50 appears in the records for this compound with (H+/K+)-ATPase (Canis lupus familiaris)? Cc1ccc2[nH]c([S+]([O-])Cc3ccccc3N)nc2c1 (stereo not shown)
7.9

What IC50 appears in the records for this compound with (H+/K+)-ATPase (Canis lupus familiaris)? Cc1cc2nc([S+]([O-])Cc3ccccc3N)[nH]c2cc1C (stereo not shown) [Example 10, hydrate]
13.5

What IC50 appears in the records for this compound with (H+/K+)-ATPase (Canis lupus familiaris)? Cc1cc(N)c(C[S+]([O-])c2nc3ccccc3[nH]2)c(C)c1C (stereo not shown) [Example 77, hemihydrate]
16

What IC50 appears in the records for this compound with (H+/K+)-ATPase (Canis lupus familiaris)? CCOc1ccc2[nH]c([S+]([O-])Cc3cc(C)ccc3N)nc2c1 (stereo not shown)
5.3

What IC50 appears in the records for this compound with (H+/K+)-ATPase (Canis lupus familiaris)? COc1c(C)cc(N)c(C[S+]([O-])c2nc3ccccc3[nH]2)c1C (stereo not shown)
0.2

What IC50 appears in the records for this compound with (H+/K+)-ATPase (Canis lupus familiaris)? Cc1ccc(C[S+]([O-])c2nc3ccccc3[nH]2)c(N)c1C (stereo not shown) [Example 53, hydrate]
0.6

What IC50 appears in the records for this compound with (H+/K+)-ATPase (Canis lupus familiaris)? CCOc1ccc2[nH]c([S+]([O-])Cc3cccc(N)n3)nc2c1 (stereo not shown)
3.1

What IC50 appears in the records for this compound with (H+/K+)-ATPase (Canis lupus familiaris)? Nc1ccccc1C[S+]([O-])c1nc2cc(Cl)ccc2[nH]1 (stereo not shown)
12

What IC50 appears in the records for this compound with (H+/K+)-ATPase (Canis lupus familiaris)? Nc1cccc(C[S+]([O-])c2nc3cc(C(F)(F)F)ccc3[nH]2)n1 (stereo not shown)
6.95

What IC50 appears in the records for this compound with (H+/K+)-ATPase (Canis lupus familiaris)? Cc1cccc(N)c1C[S+]([O-])c1nc2ccccc2[nH]1 (stereo not shown) [Example 24, hydrate]
0.66

What IC50 appears in the records for this compound with (H+/K+)-ATPase (Canis lupus familiaris)? Nc1ccc(Cl)cc1C[S+]([O-])c1nc2ccccc2[nH]1 (stereo not shown)
130
